experiment: HepG2 liver cancer cell viability effects, profiling panel, resazurin fluorescence, 24 h, PK04 Diversity Set (AID 1172); settings: higher = more signal; note: test concentration not given here
Tick Y if z-score is -0.04 or greater. Tick N if z-score is less than -0.04.

{"COMPOUND": "O=C(CCN1CCOCC1)c1cccc(O)c1", "LABEL CLASS": "Y"}
{"COMPOUND": "Cc1ccc(S[C@]2(C(=O)NCC(C)C)CC(=O)N(Cc3ccccc3Cl)[C@@H]2c2ccc(CO)cc2)cc1", "LABEL CLASS": "N"}
{"COMPOUND": "CC(C)NC(=O)[C@@H]1c2ccccc2C(=O)N(Cc2ccccc2)[C@H]1c1ccc(CO)cc1", "LABEL CLASS": "N"}
{"COMPOUND": "O=C1C2C=CC(C(O)c3ccc(-c4ccccc4)s3)N(n3cnnc3)C2C(=O)N1Cc1ccccc1 (stereo not given)", "LABEL CLASS": "N"}
{"COMPOUND": "COC(=O)c1ccc(C(O)C2C=CC3C(=O)N(c4ccccc4)C(=O)C3N2Nc2ccc(C#N)cc2)o1 (stereo not given)", "LABEL CLASS": "N"}

====

experiment: E. coli acrAB mutant growth effects, primary screen, E. coli filamentation inducers, strain DRC39, OD650, 24 h (AID 1178); conditions: higher = more signal, called active from +8 up or from −8 down;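 note: growth measured as culture turbidity by optical density at 650 nm; test concentration not given here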
Lab note: anything with z-score at or over -0.2 counts as Criterion met; the rest go in Criterion not met.

{"COMPOUND": "CCOC(=O)C[C@H]1[C@H](OC(=O)c2ccccc2-c2ccccc2)[C@@H](NC(=O)Cc2ccc(OC)cc2)c2cc(OCCCO)ccc2N1C(=O)c1ccccc1", "LABEL CLASS": "Criterion not met"}
{"COMPOUND": "COc1ccc(C(=O)Nc2cccc(CN3C(=O)[C@]4(O[C@H](CC(=O)N5CCC[C@H]5CO)[C@@H]([Si](C)(C)c5ccc(OC)cc5)[C@@H]4C)c4ccccc43)c2)cc1", "LABEL CLASS": "Criterion met"}
{"COMPOUND": "COC(=O)[C@@]1(Cc2ccccc2N=[N+]=[N-])COC(c2ccc(OCCCO)cc2)=N1", "LABEL CLASS": "Criterion not met"}
{"COMPOUND": "O=C1OCCC=C[C@H]2OC34C=CCN(Cc5ccccc5)C(=O)[C@H]3N(CCCO)C(=O)[C@@H]4C12 (stereo partly specified)", "LABEL CLASS": "Criterion not met"}
{"COMPOUND": "CCN(CC)c1ccc(N2CC=CC34O[C@@H]5C=CCCOC(=O)C5[C@H]3C(=O)N(CCCCCO)[C@@H]4C2=O)cc1 (stereo partly specified)", "LABEL CLASS": "Criterion met"}
{"COMPOUND": "O=c1cccc(CCc2ccccc2)o1", "LABEL CLASS": "Criterion not met"}
{"COMPOUND": "C=CCC(OC(C)=O)[C@@H]1[C@@H](N(Cc2cc3ccccc3o2)C(=O)c2ccc(C)cc2)c2cc(OCCCO)ccc2N1C(=O)c1ccc2ccccc2c1 (stereo partly specified)", "LABEL CLASS": "Criterion met"}
{"COMPOUND": "COC(=O)[C@]1(Cc2ccccc2N=[N+]=[N-])N=C(c2ccc(OCCCO)cc2)O[C@@H]1c1ccccc1N=[N+]=[N-]", "LABEL CLASS": "Criterion met"}
{"COMPOUND": "COc1cc2c(cc1O)C(C)N(Cc1cccc(OC(F)(F)F)c1)CC2 (stereo unspecified)", "LABEL CLASS": "Criterion met"}
{"COMPOUND": "O=C1C2C=CC(C(O)c3ccc(F)cc3)N(Nc3ccccc3)C2C(=O)N1c1ccccc1 (stereo unspecified)", "LABEL CLASS": "Criterion not met"}
{"COMPOUND": "CC(C)C(=C=CC[C@H](O)c1cccc(OCCO)c1)C[C@H](O)COCc1ccccc1", "LABEL CLASS": "Criterion met"}
{"COMPOUND": "COc1ccc([Si](C)(C)[C@H]2[C@H](CC(=O)N(CCO)Cc3ccccc3)O[C@@]3(C(=O)N(Cc4cccc(N5CCC5=O)c4)c4ccccc43)[C@@H]2C)cc1", "LABEL CLASS": "Criterion met"}
{"COMPOUND": "COC(=O)c1ccc(OC)c(/C=C\\CC(OC(C)=O)c2ccccc2)c1 (stereo unspecified)", "LABEL CLASS": "Criterion met"}
{"COMPOUND": "COCC(=C=CC[C@H](O)c1ccc(OCCO)cc1)C[C@H](O)c1cc(Cl)cc(Cl)c1O", "LABEL CLASS": "Criterion met"}
{"COMPOUND": "CC(C)NC(=O)[C@@]1(Cc2ccccc2I)c2ccccc2C(=O)N(Cc2ccccc2)[C@H]1c1ccc(CO)cc1", "LABEL CLASS": "Criterion not met"}

====

test: small-molecule binders of probe aLefty1, primary screen, biochemical, small-molecule microarray, 635/667 nm fluorescence (AID 1153); settings: higher = more signal;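 note: score merges spot fluorescence with signal-to-noise ratio from the scanned slide images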
Threshold check on composite z-score: at or above 0.1 gives condition met, strictly below gives condition not met.

{"MOLECULE": "COc1ccc(C(=O)Nc2cccc(CN3C(=O)[C@]4(O[C@H](CC(=O)N5CCC[C@H]5CO)[C@@H]([Si](C)(C)c5ccc(OC)cc5)[C@@H]4C)c4ccccc43)c2)cc1", "LABEL CLASS": "condition not met"}
{"MOLECULE": "CCCCC=C[C@@H](NC(=O)c1cccs1)c1ccccc1", "LABEL CLASS": "condition met"}
{"MOLECULE": "COc1ccc([Si](C)(C)[C@@H]2[C@@H](CCn3cc([C@H](O)c4ccccc4)nn3)O[C@]3(C(=O)N(Cc4ccc(N5C(=O)c6cccc7cccc5c67)cc4)c4ccccc43)[C@H]2C)cc1", "LABEL CLASS": "condition not met"}
{"MOLECULE": "C#CCN(C(/C=C/c1ccccc1)CO)C(C(=O)O)c1ccccc1 (stereo not given)", "LABEL CLASS": "condition not met"}
{"MOLECULE": "COCC(=C=CC[C@@H](O)c1ccc(CO)o1)CCO", "LABEL CLASS": "condition not met"}
{"MOLECULE": "C=C(COC)/C(=C/C[C@H](OC(=O)c1ccncc1)c1cccc(OCCO)c1)c1cc(C(=O)OC)ccc1OC", "LABEL CLASS": "condition met"}
{"MOLECULE": "CC(C)NC(=O)[C@@H]1c2ccccc2C(=O)N(Cc2ccccc2)[C@H]1c1ccc(CO)cc1", "LABEL CLASS": "condition met"}
{"MOLECULE": "Cc1cc(C)c(C(O)C2C=CC3C(=O)N(c4ccccc4)C(=O)C3N2Nc2ccc(C#N)cc2)c(C)c1 (stereo not given)", "LABEL CLASS": "condition met"}
{"MOLECULE": "CCOC(=O)C1=CC[C@@H](c2ccccc2Cl)N(S(=O)(=O)c2ccc(C)cc2)C1", "LABEL CLASS": "condition met"}
{"MOLECULE": "COc1c(C)cc(-c2cc3c(c(-c4ccc(Oc5ccccc5)cc4)n2)[Si](C(C)C)(C(C)C)OC3)cc1C", "LABEL CLASS": "condition met"}
{"MOLECULE": "COC(=O)[C@@]1(Cc2ccc(F)cc2)[C@H]2c3cc(C(=O)N4CCCC4)n(Cc4cccc5ccccc45)c3C[C@H]2CN1C(=O)c1ccccc1", "LABEL CLASS": "condition met"}
{"MOLECULE": "O=C1N(CCS(=O)(=O)c2ccccc2)Cc2ccccc2C[C@]12N=C(c1ccc(OCCCO)cc1)O[C@@H]2c1ccccc1", "LABEL CLASS": "condition met"}
{"MOLECULE": "COc1ccc(C(O)C2C=CC3C(=O)NC(=O)C3N2Nc2ccccn2)cc1OCc1ccccc1 (stereo not given)", "LABEL CLASS": "condition not met"}
{"MOLECULE": "Cc1ccc(S[C@]2(C(=O)NCc3ccccc3)CC(=O)N(Cc3ccccc3Cl)[C@@H]2c2ccc(CO)cc2I)cc1", "LABEL CLASS": "condition not met"}
{"MOLECULE": "CCCCC=C[C@@H](NC(=O)c1ccco1)c1ccccc1", "LABEL CLASS": "condition not met"}
{"MOLECULE": "COC(=O)[C@@]1(Cc2ccccc2)[C@H]2c3cc(C(=O)N4CCCC4)n(Cc4ccc(C)o4)c3C[C@H]2CN1C(=O)c1ccccc1", "LABEL CLASS": "condition met"}
{"MOLECULE": "Cc1cc(C)c(C(O)C2C=CC3C(=O)N(C)C(=O)C3N2Nc2ccccc2)c(C)c1 (stereo not given)", "LABEL CLASS": "condition met"}
{"MOLECULE": "[N-]=[N+]=NCc1ccccc1C[C@]1(C(=O)O)N=C(c2ccc(OCCCO)cc2)O[C@H]1c1ccccc1CN=[N+]=[N-]", "LABEL CLASS": "condition met"}
{"MOLECULE": "COC(=O)[C@@]1(Cc2ccc(OC)cc2)[C@H]2c3cc(C(=O)N4CCCC4)n(Cc4cc(F)cc5c4OCOC5)c3C[C@H]2CN1C(=O)c1ccccc1", "LABEL CLASS": "condition not met"}
{"MOLECULE": "CCOC(=O)C[C@H]1[C@H](OC(=O)c2ccc(-c3ccccc3)cc2)[C@@H](NC(=O)c2ccc(-c3ccccc3)cc2)c2cc(OCCCO)ccc2N1C(=O)Cc1ccc(OC)cc1", "LABEL CLASS": "condition not met"}
{"MOLECULE": "CCOC(=O)C1=CCC(c2ccc(C#N)cc2)N(S(=O)(=O)c2ccc(C)cc2)C1 (stereo not given)", "LABEL CLASS": "condition met"}
{"MOLECULE": "O=C1O[C@H](c2ccccc2)[C@H](c2ccccc2)N2[C@H]1[C@@H](C(=O)O)[C@]1(C(=O)Nc3ccc(C#CC4=CCCCC4)cc31)[C@H]2c1ccc(OCCO)cc1", "LABEL CLASS": "condition met"}
{"MOLECULE": "O=C1OCC=C[C@H]2OC34C=CCN(c5ccc6ccccc6c5)C(=O)[C@H]3N(CCCO)C(=O)[C@@H]4[C@@H]12 (stereo not given in full)", "LABEL CLASS": "condition met"}
{"MOLECULE": "COCCCNC(=O)[C@@]1(c2ccc([N+](=O)[O-])cc2)CC(=O)N(CC23CC4CC(CC(C4)C2)C3)[C@@H]1c1ccc(CO)cc1", "LABEL CLASS": "condition met"}
{"MOLECULE": "CCOC(=O)C1=CC[C@@H](c2ccccc2)N(S(=O)(=O)c2ccc(C)cc2)[C@H]1C(=O)OCC", "LABEL CLASS": "condition met"}
{"MOLECULE": "CCOc1cc(C(O)C2C=CC3C(=O)N(c4ccccc4)C(=O)C3N2Nc2ccc([N+](=O)[O-])cc2)ccc1O (stereo not given)", "LABEL CLASS": "condition not met"}
{"MOLECULE": "O=C1OCCC=C[C@H]2OC34C=CCN(Cc5ccccc5)C(=O)[C@H]3N(CCCCCCO)C(=O)[C@@H]4C12 (stereo not given in full)", "LABEL CLASS": "condition not met"}
{"MOLECULE": "COCCOC(=O)N1C(=O)[C@@]2(c3ccccc31)[C@H](c1ccc(O)cc1)N1[C@H](c3ccccc3)[C@H](c3ccccc3)OC(=O)[C@H]1[C@@H]2C(=O)N1CCc2cc(OC)c(OC)cc2C1", "LABEL CLASS": "condition not met"}
{"MOLECULE": "C=C[C@@H](COC(C)=O)N(Cc1ccc([N+](=O)[O-])cc1)S(=O)(=O)c1ccc(Br)cc1", "LABEL CLASS": "condition not met"}
{"MOLECULE": "CC(C)C[C@@H]1NC(=O)[C@H]2C[C@@H](C(=O)NCCCCCCNC(=O)CS)[C@@H](c3cccc(OCCO)c3)N2C1=O", "LABEL CLASS": "condition not met"}
